System: SK-MEL-5 melanoma
ASSAY PROCEDURE: NCI tumour cell line growth inhibition, 48 h
ENDPOINT: TGI (µM)

INSERT INTO assay_data (molecule, endpoint, censoring_sign, observed_value) VALUES
  ('CN(CCS(=O)(=O)N1C(=O)C2CCCN2C(=O)[C@@H]1Cc1ccccc1)C(=O)OCc1ccccc1 (some centres not stated)', 'TGI', '>', 100),
  ('CC1=N/C(=C/c2ccc3c(c2)OCO3)C(=O)O1', 'TGI', '>', 100),
  ('Clc1c(Cl)[n+](Cc2ccc3ccccc3c2)cn1Cc1ccc2ccccc2c1', 'TGI', '=', 2.39),
  ('Cc1ccc(O)c(C(c2cccc(C(c3cc(C)ccc3O)c3cc(C)ccc3O)c2)c2cc(C)ccc2O)c1', 'TGI', '=', 3.93),
  ('CC(C)[N+]([O-])(CCCNc1c2ccccc2nc2cccc([N+](=O)[O-])c12)C(C)C', 'TGI', '=', 0.0628),
  ('COc1ccccc1Nc1nc2c([nH]1)c(=O)n(C)c(=O)n2C', 'TGI', '>', 10),
  ('CC(C)(C)C1=CC(=C(P(=O)(O)O)P(=O)(O)O)C=C(C(C)(C)C)C1=O', 'TGI', '>', 50),
  ('Cc1onc(-c2ccccc2)c1C(=O)N/N=C/c1cc(Cl)cc(Cl)c1O', 'TGI', '=', 21.1),
  ('NC(=O)C1CCCN1C(=O)C(Cc1cnc[nH]1)NC(=O)C1CCCC1 (configuration not stated)', 'TGI', '>', 100),
  ('COc1ccc(C(=O)C#Cc2cn(C3CC(O)C(CO)O3)c(=O)[nH]c2=O)cc1 (configuration not stated)', 'TGI', '>', 100),
  ('COc1cc(/C=C/c2cc(/C=C/c3ccc(O)c(OC)c3)n(C(=O)c3ccc(Cl)cc3)n2)ccc1O', 'TGI', '=', 11.6),
  ('CCc1ccc(Oc2c(-c3ccc(OCc4ccc(Cl)cc4)cc3O)n[nH]c2C(F)(F)F)cc1', 'TGI', '=', 3.03),
  ('CC(/C=C/C(=O)NO)=C\C(C)C(=O)c1ccc(N(C)C)cc1 (configuration not stated)', 'TGI', '=', 0.187),
  ('CC(=O)OC[C@H]1CN(OC(C)=O)C[C@@H](n2cc(C)c(=O)[nH]c2=O)O1', 'TGI', '>', 100),
  ('CC1=NN(c2cccc(Cl)c2)C2(SCC(=O)N2c2nc3ccccc3s2)C1=CC=Cc1ccccc1 (configuration not stated)', 'TGI', '=', 47),
  ('COc1ccc(CNc2cnc3cc(N)ccc3n2)cc1', 'TGI', '>', 100),
  ('O=C(Nc1ccccc1)c1cc(S(=O)(=O)Nc2n[nH]c(=O)n2-c2ccccc2)c(S)cc1Cl', 'TGI', '>', 100);

* * *

Below, each entry is listed with its recorded TGI.
Test system: SF-295 CNS
ASSAY PROCEDURE: NCI tumour cell line growth inhibition, 48 h
ENDPOINT: TGI (µM)

INSERT INTO assay_data (molecule, system_name, censoring_sign, observed_value) VALUES
  ('CCCCc1ccc(N=C(N)N)cc1', 'SF-295 CNS', '=', 87.3),
  ('O=C(O)CCNCC(=O)O', 'SF-295 CNS', '>', 100),
  ('COc1cc(/C=C2\CC3C4CC=C5C[C@@H](OC(C)=O)CC[C@]5(C)C4CC[C@]3(C)C2=O)ccc1OCCN1CCCCC1 (stereo partly specified)', 'SF-295 CNS', '=', 5.08),
  ('N#Cc1ccc(C(O)C(F)(F)c2nc3ccccc3o2)cc1 (stereo unspecified)', 'SF-295 CNS', '>', 100),
  ('O=c1oc2ccc(I)cc2c(=O)n1-c1ccc(Br)cc1F', 'SF-295 CNS', '=', 3.41),
  ('Cc1ccc(O)c(C(c2cccc(C(c3cc(C)ccc3O)c3cc(C)ccc3O)c2)c2cc(C)ccc2O)c1', 'SF-295 CNS', '=', 3.91);

The measured values listed here are drawn from PubChem BioAssay (NCI).
